assay: Drug localization in golgi bodies of human HCT-116 cells at 10 uM measured upto 12 hrs by Golgin-97 and DAPI staining based laser scanning confocal microscopic analysis; format: ADME, subcellular, Golgi body; settings: hct-116, 12 h

compound.string	Drug uptake
Br.COc1ccc(/C=C/c2cc(/C=C/c3ccc(OC)cc3)nc(OCCCCSC(=N)N)n2)cc1	Active
Br.COc1ccc(/C=C/c2cc(/C=C/c3ccc(OC)cc3)nc(OCCCCCSC(=N)N)n2)cc1	Active
Br.COc1ccc(/C=C/c2cc(/C=C/c3ccc(OC)cc3)nc(OCCCCCCSC(=N)N)n2)cc1	Active

====

Readings of IC50 for the listed compounds
test system: HCT-116; test: Cytotoxicity against human HCT-116 cells assessed as reduction in cell viability incubated for 48 hrs by resazurin reagent based fluorescence assay; type: functional; conditions: HCT-116, 48 h
Give a bare numeral; the unit nM is implied.

# annotated cases, reported IC50 shown
compound.string	unit.of.measure	IC50
COc1ccc(/C=C/c2cc(/C=C/c3ccc(OC)c(OC)c3)nc(OCCCCSC(N(C)C)=[N+](C)C)n2)cc1OC.[Br-]	nM	3890
Br.COc1ccc(/C=C/c2cc(/C=C/c3ccc(OC)cc3)nc(OCCCCSC(=N)N)n2)cc1	nM	1000
COc1cc(/C=C/c2cc(/C=C/c3cc(OC)c(OC)c(OC)c3)nc(OCCCCCSC(=N)N)n2)cc(OC)c1OC	nM	2080

`COc1cc(/C=C/c2cc(/C=C/c3cc(OC)c(OC)c(OC)c3)nc(OCCCCCCSC(=N)N)n2)cc(OC)c1OC` yielded IC50 of 1870

====

Each entry below lists one item and its recorded pIC50 value.
system: HCT-116; test: Cytotoxicity against human HCT-116 cells assessed as reduction in cell viability incubated for 48 hrs by resazurin reagent based fluorescence assay; format: functional; settings: HCT-116, 48 h
// pIC50 is dimensionless: -log10 of concentration (M)

Some solved cases for reference:
compound.string	pIC50
COc1ccc(/C=C/c2cc(/C=C/c3ccc(OC)c(OC)c3)nc(OCCCCCCSC(=N)N)n2)cc1OC	5.69
Br.COc1ccc(/C=C/c2cc(/C=C/c3ccc(OC)cc3)nc(OCCCCCCSC(=N)N)n2)cc1	5.70
COc1ccc(/C=C/c2cc(/C=C/c3ccc(OC)c(OC)c3)nc(OCCCCCSC(=N)N)n2)cc1OC	5.74
Br.COc1ccc(/C=C/c2cc(/C=C/c3ccc(OC)c(OC)c3)nc(OCCCCSC(=N)N)n2)cc1OC	5.73
COc1cc(/C=C/c2cc(/C=C/c3cc(OC)c(OC)c(OC)c3)nc(OCCCCSC(N(C)C)=[N+](C)C)n2)cc(OC)c1OC	5.27

Now consider a different compound.
pIC50 recorded for this compound, `N=C(N)SCCCCCCOc1nc(/C=C/c2ccccc2)cc(/C=C/c2ccccc2)n1` , is 5.64

====

assay: Cytotoxicity against GAG-deficient CHO-745 cells assessed as reduction in cell viability at 10 uM incubated for 48 hrs by resazurin reagent based fluorescence assay; parameters: species or system Cricetulus griseus; settings: chinese hamster, cho-745, 48 h
value.kind: Activity

Reference set, count: 5
compound.string	value.kind	val
COc1ccc(/C=C/c2cc(/C=C/c3ccc(OC)c(OC)c3)nc(OCCCCSC(N(C)C)=[N+](C)C)n2)cc1OC.[Br-]	Activity	Non-Toxic
COc1ccc(/C=C/c2cc(/C=C/c3ccc(OC)cc3)nc(OCCCCSC(N(C)C)=[N+](C)C)n2)cc1.[Br-]	Activity	Non-Toxic
COc1ccc(/C=C/c2cc(/C=C/c3ccc(OC)cc3)nc(OCCCCBr)n2)cc1	Activity	Non-Toxic
Br.COc1ccc(/C=C/c2cc(/C=C/c3ccc(OC)cc3)nc(OCCCCSC(=N)N)n2)cc1	Activity	Toxic
Br.COc1ccc(/C=C/c2cc(/C=C/c3ccc(OC)c(OC)c3)nc(OCCCCSC(=N)N)n2)cc1OC	Activity	Toxic

Then there is this molecule:
Sure, the documented Activity for `COc1ccc(/C=C/c2cc(/C=C/c3ccc(OC)c(OC)c3)nc(OCCCCBr)n2)cc1OC` is Toxic

====

system: NCI-H1299; test: Cytotoxicity against human NCI-H1299 cells assessed as reduction in cell viability incubated for 48 hrs by resazurin reagent based fluorescence assay; type: functional; details: NCI-H1299, 48 h
value.kind: IC50 (µM)
Only the number, expressed in µM, is required.

The following compounds have reported results that may help.
compound.string	val
COc1ccc(/C=C/c2cc(/C=C/c3ccc(OC)c(OC)c3)nc(OCCCCSC(N(C)C)=[N+](C)C)n2)cc1OC.[Br-]	5.81
COc1cc(/C=C/c2cc(/C=C/c3cc(OC)c(OC)c(OC)c3)nc(OCCCCCCSC(=N)N)n2)cc(OC)c1OC	3.09
COc1cc(/C=C/c2cc(/C=C/c3cc(OC)c(OC)c(OC)c3)nc(OCCCCSC(N(C)C)=[N+](C)C)n2)cc(OC)c1OC	15
N=C(N)SCCCCOc1nc(/C=C/c2ccccc2)cc(/C=C/c2ccccc2)n1	4.51
Br.COc1ccc(/C=C/c2cc(/C=C/c3ccc(OC)c(OC)c3)nc(OCCCCSC(=N)N)n2)cc1OC	1.53
COc1ccc(/C=C/c2cc(/C=C/c3ccc(OC)c(OC)c3)nc(OCCCCCCSC(=N)N)n2)cc1OC	3.75
N=C(N)SCCCCCOc1nc(/C=C/c2ccccc2)cc(/C=C/c2ccccc2)n1	7.09
COc1cc(/C=C/c2cc(/C=C/c3cc(OC)c(OC)c(OC)c3)nc(OCCCCCSC(=N)N)n2)cc(OC)c1OC	4.13

# `Br.COc1ccc(/C=C/c2cc(/C=C/c3ccc(OC)cc3)nc(OCCCCCCSC(=N)N)n2)cc1` with NCI-H1299: IC50 is 3.69

# lookup: `Br.COc1ccc(/C=C/c2cc(/C=C/c3ccc(OC)cc3)nc(OCCCCCSC(=N)N)n2)cc1` on NCI-H1299, IC50 = 2.96

Hey, NCI-H1299 data for `COc1ccc(/C=C/c2cc(/C=C/c3ccc(OC)cc3)nc(OCCCCSC(N(C)C)=[N+](C)C)n2)cc1.[Br-]` : IC50 came out at 7.49

====

test: Cytotoxicity against heparan sulfate-deficient CHO-677 cells assessed as reduction in cell viability at 10 uM incubated for 48 hrs by resazurin reagent based fluorescence assay; design: species or system Cricetulus griseus; conditions: chinese hamster, cho-677, 48 h
value.kind: Activity

Answered examples (5):
compound.string	val
COc1ccc(/C=C/c2cc(/C=C/c3ccc(OC)cc3)nc(OCCCCSC(N(C)C)=[N+](C)C)n2)cc1.[Br-]	Non-Toxic
COc1ccc(/C=C/c2cc(/C=C/c3ccc(OC)c(OC)c3)nc(OCCCCSC(N(C)C)=[N+](C)C)n2)cc1OC.[Br-]	Non-Toxic
COc1ccc(/C=C/c2cc(/C=C/c3ccc(OC)c(OC)c3)nc(OCCCCBr)n2)cc1OC	Toxic
Br.COc1ccc(/C=C/c2cc(/C=C/c3ccc(OC)cc3)nc(OCCCCSC(=N)N)n2)cc1	Toxic
Br.COc1ccc(/C=C/c2cc(/C=C/c3ccc(OC)c(OC)c3)nc(OCCCCSC(=N)N)n2)cc1OC	Toxic

Kindly review the next compound as well.
Measured Activity of `COc1ccc(/C=C/c2cc(/C=C/c3ccc(OC)cc3)nc(OCCCCBr)n2)cc1` : Non-Toxic

====

assay: Drug localization in golgi bodies of human A549 cells at 10 uM measured upto 12 hrs by Golgin-97 and DAPI staining based laser scanning confocal microscopic analysis; format: ADME, subcellular, Golgi body; conditions: a549, 12 h

compound.string	Drug uptake
Br.COc1ccc(/C=C/c2cc(/C=C/c3ccc(OC)cc3)nc(OCCCCCCSC(=N)N)n2)cc1	Active
Br.COc1ccc(/C=C/c2cc(/C=C/c3ccc(OC)cc3)nc(OCCCCSC(=N)N)n2)cc1	Active
Br.COc1ccc(/C=C/c2cc(/C=C/c3ccc(OC)cc3)nc(OCCCCCSC(=N)N)n2)cc1	Active

====

test system: HCT-116; experiment: Cytotoxicity against human HCT-116 cells assessed as reduction in cell viability incubated for 48 hrs by resazurin reagent based fluorescence assay; type: functional; details: HCT-116, 48 h
Entries annotated with measured pIC50
Scale: pIC50 equals -log10([C]), with [C] in mol/L.

compound.string	pIC50
Br.COc1ccc(/C=C/c2cc(/C=C/c3ccc(OC)cc3)nc(OCCCCCSC(=N)N)n2)cc1	5.71

response.value for `N=C(N)SCCCCCOc1nc(/C=C/c2ccccc2)cc(/C=C/c2ccccc2)n1` (field: pIC50) = 5.62

====

system: NCI-H1299; test: Cytotoxicity against human NCI-H1299 cells assessed as reduction in cell viability incubated for 48 hrs by resazurin reagent based fluorescence assay; assay type: functional; conditions: NCI-H1299, 48 h
value.kind: IC50 (µM)
Give just the numeric value; µM need not be written.

The cases that follow already have their IC50 on record.
compound.string	unit.of.measure	IC50
N=C(N)SCCCCCCOc1nc(/C=C/c2ccccc2)cc(/C=C/c2ccccc2)n1	µM	6.4
Br.COc1ccc(/C=C/c2cc(/C=C/c3ccc(OC)cc3)nc(OCCCCSC(=N)N)n2)cc1	µM	0.92
COc1cc(/C=C/c2cc(/C=C/c3cc(OC)c(OC)c(OC)c3)nc(OCCCCSC(=N)N)n2)cc(OC)c1OC	µM	5.1

Please find the next compound below.
Value sought: IC50, system NCI-H1299, item `COc1ccc(/C=C/c2cc(/C=C/c3ccc(OC)c(OC)c3)nc(OCCCCCSC(=N)N)n2)cc1OC` . Result: 4.04
